Listing of entries alongside the reported Euclidean distance.
Tested on: A549
Experiment: Euclidean distance of Cell Painting phenotypic profile (signed KS, 77 features) to DMSO centroid (dimensionless distance); 5 or 10 uM (library dependent); higher = stronger phenotypic change vs DMSO (phenoactivity)
Conditions: 48 h
Structures can show the parent of a compound that is named as a salt.

{"compound": "CS(=O)(=O)c1ccc([C@@H](O)[C@@H](CO)NC(=O)C(Cl)Cl)cc1 [Thiamphenicol]", "target of assay": "A549", "Euclidean distance": 0.742}
{"compound": "CCCCCOc1ccccc1/C(=C\\SC)n1ccnc1 [Neticonazole Hydrochloride]", "target of assay": "A549", "Euclidean distance": 1.44}
{"compound": "CN1c2ccccc2C(=O)N2CCc3c([nH]c4ccccc34)C21 (stereo in doubt) [Evodiamine]", "target of assay": "A549", "Euclidean distance": 2.85}
{"compound": "C[N+](C)(C)CC(=O)O [Betaine]", "target of assay": "A549", "Euclidean distance": 0.84}
{"compound": "CC1(C)S[C@@H]2[C@H](NC(=O)[C@H](N)c3ccccc3)C(=O)N2[C@H]1C(=O)OCOC(=O)[C@@H]1N2C(=O)C[C@H]2S(=O)(=O)C1(C)C [Sultamicillin Tosylate]", "target of assay": "A549", "Euclidean distance": 1.18}
{"compound": "O=C(Cn1cnnn1)N[C@@H]1C(=O)N2C(C(=O)O)=C(CSc3nncs3)CS[C@H]12 [Ceftezole sodium]", "target of assay": "A549", "Euclidean distance": 1.39}
{"compound": "Cc1c(N)c(=O)n(-c2ccccc2)n1C [4-Aminoantipyrine]", "target of assay": "A549", "Euclidean distance": 0.968}
{"compound": "O=C(/C=C/C#Cc1cccc(NS(=O)(=O)c2ccccc2)c1)NO [Oxamflatin]", "target of assay": "A549", "Euclidean distance": 3.01}

----------
Listing of entries alongside the reported Euclidean distance.
Test system: 786-O
Experiment: Euclidean distance of Cell Painting phenotypic profile (signed KS, 77 features) to DMSO centroid (dimensionless distance); 5 or 10 uM (library dependent); higher = stronger phenotypic change vs DMSO (phenoactivity)
Conditions: 48 h
Structures can show the parent of a compound that is named as a salt.

{"molecule": "CC(C)(O)[C@H]1CC[C@@](C)([C@H]2[C@@H](O)C[C@@]3(C)[C@@H]4C[C@H](O[C@@H]5O[C@H](CO)[C@@H](O)[C@H](O)[C@H]5O)[C@H]5C(C)(C)[C@@H](O[C@@H]6OC[C@@H](O)[C@H](O)[C@H]6O)CC[C@@]56C[C@@]46CC[C@]23C)O1 [Astragaloside A]", "Euclidean distance": 4.07}
{"molecule": "O=C1C(N(CO)C(=O)NCO)N(CO)C(=O)N1CO (stereo not given) [Diazolidinyl urea]", "Euclidean distance": 0.723}
{"molecule": "Nc1nc(OCc2cc(Br)cs2)c2[nH]cnc2n1 [Lomeguatrib]", "Euclidean distance": 1.07}
{"molecule": "Cc1cccc(CC(=O)N2CCc3c2ccc(-c2cn(C)c4ncnc(N)c24)c3F)n1", "Euclidean distance": 1.25}
{"molecule": "CCC(=O)NC[C@@H]1C[C@H]1c1cccc2c1CCO2 [Tasimelteon]", "Euclidean distance": 1.21}
{"molecule": "Cc1ccc2nc(NCCN)c3ncc(C)n3c2c1", "Euclidean distance": 0.585}
{"molecule": "O=C(NC1CCN(CCCCC2(C(=O)NCC(F)(F)F)c3ccccc3-c3ccccc32)CC1)c1ccccc1-c1ccc(C(F)(F)F)cc1 [Lomitapide Mesylate]", "Euclidean distance": 5.45}
{"molecule": "O=C1c2cccc(O)c2C(=O)c2c(O)cc(CO)cc21 [Aloe-emodin]", "Euclidean distance": 1.1}
{"molecule": "CCn1cc(C(=O)O)c(=O)c2cc(F)c(N3CCNC(C)C3)c(F)c21 (stereo not given) [Lomefloxacin HCl]", "Euclidean distance": 0.907}
{"molecule": "CSc1ccc2c(c1)N(CCC1CCCCN1C)c1ccccc1S2 (stereo not given) [Thioridazine hydrochloride]", "Euclidean distance": 2.83}
{"molecule": "CCNC(=O)[C@@H]1CCCN1C(=O)[C@H](CCCN=C(N)N)NC(=O)[C@H](CC(C)C)NC(=O)[C@@H](C)NC(=O)[C@H](Cc1ccc(O)cc1)NC(=O)[C@H](CO)NC(=O)[C@H](Cc1c[nH]c2ccccc12)NC(=O)[C@H](Cc1cnc[nH]1)NC(=O)[C@@H]1CCC(=O)N1 [Alarelin Acetate]", "Euclidean distance": 0.728}
{"molecule": "OCCN1CCN(CCCN2c3ccccc3Sc3ccc(C(F)(F)F)cc32)CC1 [Fluphenazine dihydrochloride]", "Euclidean distance": 1.98}
{"molecule": "O=C(O)[C@H]1O[C@@H](Oc2cc3oc(-c4ccccc4)cc(=O)c3c(O)c2O)[C@H](O)[C@@H](O)[C@@H]1O [Baicalin]", "Euclidean distance": 1.89}
{"molecule": "Clc1ccc(C(Cn2ccnc2)OCc2ccc(Sc3ccccc3)cc2)c(Cl)c1 (stereo not given) [Fenticonazole Nitrate]", "Euclidean distance": 1.13}
{"molecule": "O=C(O)c1cc(=O)c2ccccc2o1 [Chromocarb]", "Euclidean distance": 1.02}
